The reported measurements were obtained from patent US7479493B2.

These molecules were tested on cloned human H3 receptor (Homo sapiens); pKi is the recorded read-out.
pKi: −log10 of the molar value.
Measurement Name: pKi

{"columns": ["Molecule", "Measurement Name", "Measured Result"],
 "data": [
  ["COCCN(CCOC)Cc1ccc(C(=O)N2CCC(N(C)C)CC2)cc1Oc1cccnc1", "pKi", 6.70],
  ["CN(C)C1CCN(C(=O)c2ccc(CN3CCCCC3)c(Oc3cccnc3)c2)C1 (stereo not drawn)", "pKi", 8.15],
  ["CNCc1ccc(C(=O)N2CCN(C(C)C)CC2)cc1Oc1ccc(Cl)cc1", "pKi", 8.40],
  ["CNCc1cc(N2CCN(c3ccncc3)CC2)ccc1Oc1ccc(SC)cc1", "pKi", 6.96],
  ["CNCc1cc(N2CCN(C(C)C)CC2=O)ccc1Oc1ccc(SC)cc1", "pKi", 6.40],
  ["COCCN(CCOC)Cc1ccc(C(=O)N2CCN(C(C)C)CC2)cc1Oc1ccccc1", "pKi", 7.92],
  ["CNCCNC(=O)c1ccc(CN(C)C)c(Oc2cccnc2)c1", "pKi", 5.72],
  ["Cc1ccc(Oc2cc(C(=O)N3CCN(C(C)C)CC3)ccc2CN2CCOCC2)c(C)n1", "pKi", 7.68],
  ["CNCc1cc(N2CCN(C)CC2)ccc1Oc1ccc(SC)cc1", "pKi", 6.68],
  ["CSc1ccc(Oc2ccc(CN3CCN(C(C)C)CC3)cc2CN(C)C)cc1", "pKi", 7.68],
  ["CNCc1cc(C(=O)N2CCN(C3CC3)CC2)ccc1Sc1ccccn1", "pKi", 6.77],
  ["CNCc1cc(N2CCN(C(C)C)CCC2=O)ccc1Oc1ccc(SC)cc1", "pKi", 8.52],
  ["CN(C)Cc1ccc(C(=O)NCCN(C)C2CC2)cc1Oc1cccnc1", "pKi", 7.35],
  ["CNCc1cc(C(=O)N2CCN(C3CC3)CC2)ccc1Oc1ccc(F)c(Cl)c1", "pKi", 7.49],
  ["CNCc1cc(C(=O)N2CCN(C3CC3)CC2)ccc1Sc1ccc(Cl)cc1", "pKi", 6.82],
  ["CNCc1cc(N2CC[C@H](N(C)C)C2)ccc1Oc1ccc(SC)cc1", "pKi", 6.52],
  ["CC(C)N1CCN(C(=O)c2ccc(CNC3CC3)c(Oc3cccnc3)c2)CC1", "pKi", 8.52],
  ["CNCc1ccc(C(=O)N2CCN(C(C)C)CC2)cc1Oc1ccc(Cl)c(Cl)c1", "pKi", 9.00]
]}

* * *

These compounds were tested on cloned human H3 receptor (Homo sapiens, UniProt Q9Y5N1); Ki is the recorded read-out.
Sequence (Q9Y5N1 whole entry): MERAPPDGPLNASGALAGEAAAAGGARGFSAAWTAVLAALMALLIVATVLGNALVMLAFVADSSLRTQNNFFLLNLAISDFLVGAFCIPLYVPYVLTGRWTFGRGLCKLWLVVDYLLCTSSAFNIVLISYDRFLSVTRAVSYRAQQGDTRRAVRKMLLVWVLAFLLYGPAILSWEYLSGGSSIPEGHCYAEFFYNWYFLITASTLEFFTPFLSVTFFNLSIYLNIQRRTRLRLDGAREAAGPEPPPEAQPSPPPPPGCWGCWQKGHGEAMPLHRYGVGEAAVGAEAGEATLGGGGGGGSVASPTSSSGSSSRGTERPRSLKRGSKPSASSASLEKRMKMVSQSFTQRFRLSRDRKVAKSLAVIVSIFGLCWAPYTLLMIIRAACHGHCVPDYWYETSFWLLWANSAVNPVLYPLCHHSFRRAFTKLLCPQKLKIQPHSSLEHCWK
Measurement Name: Ki (nM)

{"columns": ["Smiles", "Measured Result"],
 "data": [
  ["CNCc1cc(CN2CCC(=O)N(C(C)C)CC2)ccc1Oc1ccc(Cl)c(Cl)c1", 6300],
  ["O=C(c1ccc(CNC2CC2)c(Oc2cccnc2)c1)N1CCN(C2CC2)CC1", 10],
  ["CNCc1cc(N2CCN(CCF)CC2)ccc1Oc1ccc(SC)cc1", 160]
]}

* * *

- Experimental Target: human SERT (Homo sapiens, UniProt P31645)
- Sequence (P31645 whole entry): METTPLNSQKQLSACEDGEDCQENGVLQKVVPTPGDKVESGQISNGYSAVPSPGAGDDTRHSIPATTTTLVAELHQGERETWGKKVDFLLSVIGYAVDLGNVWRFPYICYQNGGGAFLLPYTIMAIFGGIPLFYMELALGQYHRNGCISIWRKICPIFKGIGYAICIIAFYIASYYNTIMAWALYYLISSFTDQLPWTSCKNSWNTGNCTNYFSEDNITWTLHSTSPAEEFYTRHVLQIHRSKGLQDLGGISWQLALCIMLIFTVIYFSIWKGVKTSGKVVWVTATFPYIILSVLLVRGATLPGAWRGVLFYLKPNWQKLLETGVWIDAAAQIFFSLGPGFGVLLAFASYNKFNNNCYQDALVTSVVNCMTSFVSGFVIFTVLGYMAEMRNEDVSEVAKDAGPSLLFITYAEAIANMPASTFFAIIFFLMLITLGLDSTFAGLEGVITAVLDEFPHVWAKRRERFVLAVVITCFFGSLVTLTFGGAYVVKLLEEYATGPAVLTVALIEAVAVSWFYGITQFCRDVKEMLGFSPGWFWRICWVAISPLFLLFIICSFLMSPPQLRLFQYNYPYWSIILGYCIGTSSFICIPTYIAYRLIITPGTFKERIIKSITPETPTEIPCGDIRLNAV
pKi: −log10 of the molar value.

{"columns": ["Smiles", "pKi"],
 "data": [
  ["CNCc1cc(C(=O)N2CCN(C(C)C)CC2)ccc1Oc1cccnc1", 6.38],
  ["CNCc1cc(N2CCN(C(C)C)CCC2=O)ccc1Oc1ccc(Cl)c(Cl)c1", 7.80]
]}
